Kindly state Kd for each of the entries shown.
# testedSystem: T1, GFP-9S library array, motif 4 ND N98C;D124V (synthetic construct, N98C;D124V)
# T1 chain: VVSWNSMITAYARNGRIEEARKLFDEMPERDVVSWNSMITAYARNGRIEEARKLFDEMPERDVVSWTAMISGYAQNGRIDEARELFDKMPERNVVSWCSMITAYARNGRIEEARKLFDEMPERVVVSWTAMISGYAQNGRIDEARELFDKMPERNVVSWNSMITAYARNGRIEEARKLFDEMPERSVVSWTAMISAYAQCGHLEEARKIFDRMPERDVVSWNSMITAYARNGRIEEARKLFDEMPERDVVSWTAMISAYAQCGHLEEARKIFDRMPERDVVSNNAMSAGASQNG
# assayNotes: high-throughput RNA pulldown from lysate on Ni-NTA beads; HRP: 50 mM Tris pH 8, 150 mM NaCl, 1 mM beta-mercaptoethanol, 50 ug/ml BSA, 3 ug/ml yeast RNA, 0.5% heparin; ITC and FP: Tris pH 8, 200 mM KCl, 5% glycerol; MST: 50 mM Tris pH 8, 200 mM NaCl, 1 mM DTT, BSA, heparin, 0.05% Tween 20
# conditions: tags: N-terminal His-eGFP; label: 5' Cy5
Returns: string containing the numeric result and its unit.

AUUACACGUGA (ssRNA) [Cy5-rpoA] = 130 nM

Reported Kd for AUUAGACGUGA (ssRNA) [Cy5-rpoA-G] was 124 nM

Values were extracted from paper PMC8809517.
